# System under test: il10ra, Q13651
# Sequence (Q13651 whole entry): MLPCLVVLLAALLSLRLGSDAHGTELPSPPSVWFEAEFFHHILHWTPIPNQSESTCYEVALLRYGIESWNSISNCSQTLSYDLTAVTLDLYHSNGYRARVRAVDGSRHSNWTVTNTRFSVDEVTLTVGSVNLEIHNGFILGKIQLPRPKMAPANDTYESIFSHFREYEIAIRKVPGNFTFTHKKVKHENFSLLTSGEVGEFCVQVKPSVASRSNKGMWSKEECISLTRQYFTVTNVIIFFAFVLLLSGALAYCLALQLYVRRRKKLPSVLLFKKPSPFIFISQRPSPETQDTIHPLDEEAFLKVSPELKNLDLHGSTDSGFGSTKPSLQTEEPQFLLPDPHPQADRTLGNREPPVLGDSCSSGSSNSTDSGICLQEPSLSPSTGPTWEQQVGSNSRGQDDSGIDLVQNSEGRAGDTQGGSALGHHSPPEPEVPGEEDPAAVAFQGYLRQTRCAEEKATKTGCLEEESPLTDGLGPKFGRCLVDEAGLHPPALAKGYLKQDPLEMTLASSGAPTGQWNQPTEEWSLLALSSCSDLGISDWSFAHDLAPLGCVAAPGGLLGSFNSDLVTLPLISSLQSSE
# Assay protocol: yeast display titration
A selection follows. The true hit rate is not given.
Outcomes: true (1) for active, false (0) for inactive

INSERT INTO measurements (binder, class_label) VALUES
  ('il10ra_site1_normal_mot_HHH_b2_08144_af2_000000046_0001_38_52_H_._HHH_b1_00696_0001_0000600035_0000001_0 (protein) SSSSTEEIQRIMELLRRAAELLNEGNPEEAEKLIEEAEELVKEANDPLLEIQLRFLERDINSSSS', 'false (0)'),
  ('il10ra_site1_normal_mot_HHH_b2_01705_af2_000000069_0001_44_57_H_._HHH_b1_04218_af2_0001_0000400020_0000001_0 (protein) SSSSSSDSEELLEEAEELLKEIKDPEERTEVYRKFAEELVELGDREAIERLSELFIRASSSSSSS', 'false (0)'),
  ('il10ra_site1_normal_mot_HHH_b1_05357_000000034_0001_23_39_H_._HHH_b1_03625_af2_0001_0000700020_0000001_0 (protein) SSSSSDEKEVTHILIQAYAAANHGNPEEAEELLKEAKEIAEEINNERLKLSIEKVEEILRSSSSS', 'false (0)'),
  ('il10ra_site1_normal_mot_HHH_b1_00566_000000151_0001_22_39_H_._HHH_b1_00313_af2_0001_0000700014_0000001_0 (protein) SSSSDEREEIAILVAEAIILAERRGDKEVAEELWQLLVEAYYHGDPELFREVEELAEKFLSSSSS', 'true (1)'),
  ('il10ra_site1_normal_mot_HHH_b1_00999_000000080_0001_41_55_H_._HHH_b2_01363_af2_0001_0000100001_0000002_0 (protein) SSSSSSEEVEEEVERLLEEAKEIEDPEEAMRVLLEALQIALRNNNKELLQLVWRIIKELGSSSSS', 'false (0)');
